measured.target: Estrogen receptor beta (Homo sapiens)
protocol.description: inhibitors of ERβ-SRC1 coactivator interaction, primary screen, biochemical, TR-FRET, ERβ LBD, SRC-1 peptide (AID 633)
measurement.parameters: TR-FRET ER-beta LBD / SRC1-Cy5 peptide binding; at 25.6 µM; receptor agonist-loaded with 1 µM estradiol
In all, about 86,000 compounds went through this assay and about 1,100 (1.3%) were called active.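 The calls were made as follows: active = compounds whose percent inhibition of the receptor-coactivator binding signal exceeds about 50% in the single-dose screen (limit read from the data); inactive = the rest.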 For the sample, actives were picked, then their nearest neighbours and some compounds at random.
Hi there, use one of these labels in your reply, thanks! active, inactive

Prompt line: What classification did `CCn1c(-c2ccoc2C)n[nH]c1=S` end up with in this test?
Response line: inactive

Prompt line: What classification did `O=C(Nc1nccs1)c1cc(S(=O)(=O)N2CCOCC2)c(Cl)cc1Cl` end up with in this test?
Response line: inactive

Prompt line: What classification did `CCOC(=O)c1ccc(COC(=O)CCc2nc(-c3ccccc3)c(-c3ccccc3)o2)cc1` end up with in this test?
Response line: inactive

Prompt line: What classification did `N#Cc1c2c(c(N3CCN(CCO)CC3)n3c1nc1ccccc13)CCCC2` end up with in this test?
Response line: inactive

***
Prompt line: What classification did `Cc1nn(C)cc1CNC(=O)Nc1ccc(Cl)cc1` end up with in this test?
Response line: inactive

Prompt line: What classification did `CN(C)CCCNc1c2c(c(C#N)c3nc4ccccc4n13)CCC2` end up with in this test?
Response line: active

Prompt line: What classification did `COc1cc(OC)c(-n2c(C)cc(C=O)c2C)cc1Cl` end up with in this test?
Response line: inactive

Prompt line: What classification did `CCOc1ccc(-c2nnc(-c3ccco3)o2)cc1` end up with in this test?
Response line: inactive

Prompt line: What classification did `O=C(NCc1cccnc1)Nc1ccccc1F` end up with in this test?
Response line: inactive

Prompt line: What classification did CC(C)C(=O)NC(NC(=S)NC1CCS(=O)(=O)C1)C(Cl)(Cl)Cl (stereo not drawn) end up with in this test?
Response line: inactive

----------
measured.target: Estrogen receptor beta (Homo sapiens)
protocol.description: inhibitors of ERβ-SRC1 coactivator interaction, primary screen, biochemical, TR-FRET, ERβ LBD, SRC-1 peptide (AID 633)
measurement.parameters: TR-FRET ER-beta LBD / SRC1-Cy5 peptide binding; at 25.6 µM; receptor agonist-loaded with 1 µM estradiol
Among all 86,000 compounds or so, about 1,100 (1.3%) were called active.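 Rule for the calls: active = compounds whose percent inhibition of the receptor-coactivator binding signal exceeds about 50% in the single-dose screen (limit read from the data); inactive = the rest.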 For the sample, actives were picked, then their nearest neighbours and some compounds at random.
Hi there, use one of these labels in your reply, thanks! TRUE = active, FALSE = inactive

Here are 5 compounds together with their reported answers.
Prompt line: What classification did `O=C(COC(=O)CCC(=O)c1cccs1)NCc1ccco1` end up with in this test?
Response line: TRUE

Prompt line: What classification did `COC(=O)c1cccc(NC(=O)CSc2nc(C)cc(=O)[nH]2)c1` end up with in this test?
Response line: TRUE

Prompt line: What classification did CCOC(=O)c1sc(C)c2c1NC(C)(c1cccc3ccccc13)NC2=O (stereo unspecified) end up with in this test?
Response line: FALSE

Prompt line: What classification did `CCN(CC)CC(=O)c1c[nH]c2ccc(OC)cc12` end up with in this test?
Response line: FALSE

Prompt line: What classification did `CCOC(=O)Cc1csc(NC(=O)CSc2nc(C)cc(=O)[nH]2)n1` end up with in this test?
Response line: FALSE

***
Prompt line: What classification did `COc1ccc2[nH]c3ccc(OC)cc3c2c1` end up with in this test?
Response line: FALSE

Prompt line: What classification did `COc1ccc2[nH]cc(/C=C(/C#N)S(=O)(=O)c3ccccc3)c2c1` end up with in this test?
Response line: TRUE
